Experiment: chemical genetic growth profiling, strain panel (AID 1159580);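 further: tested at 20 µM; growth read once vehicle control cultures reached saturation at 30 °C; 1 = growth at the plate median or of vehicle wells; lower values mean less growth of the strain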
Conditions: S. cerevisiae deletion strains, growth OD, locus YNL161W, strain CBK1
About 2,000 (36%) of roughly 5,500 compounds were called active. Roughly 18% stayed inconclusive and do not appear here. No stated cut-off is given here; in the data, active means normalized growth mostly below about 0.91 (no sharp cut-off); inconclusive means no clear call, values can overlap the other calls; inactive means mostly above about 0.92. Some of the results follow.
Outcome codes: 1 (active), 0 (inactive)

{"COMPOUND": "Cc1nc(C(F)(F)F)ccc1C(=O)Sc1nnc(-c2ccc(C(F)(F)F)nc2C)o1", "ASSIGNED_LABEL": 0}
{"COMPOUND": "Cc1c(C(=O)NCCNc2ccc(C(F)(F)F)cc2[N+](=O)[O-])cnn1-c1ccc(F)cc1", "ASSIGNED_LABEL": 0}
{"COMPOUND": "N#Cc1c(N)sc2c1CCc1ccccc1-2", "ASSIGNED_LABEL": 1}
{"COMPOUND": "COc1ccc(/C(C#N)=C2C=C/C(=N/O)C(Cl)=C\\2)cc1", "ASSIGNED_LABEL": 0}
{"COMPOUND": "COc1cc(OC)cc(/C(N)=N\\O)c1", "ASSIGNED_LABEL": 0}
{"COMPOUND": "CC(Oc1ccc(Cl)cc1Cl)C(=O)NNC(=S)Nc1ccccc1 (configuration not stated)", "ASSIGNED_LABEL": 0}
{"COMPOUND": "C(=NC(N=Cc1ccccc1)c1ccccc1)c1ccccc1 (configuration not stated)", "ASSIGNED_LABEL": 0}
{"COMPOUND": "CC1CCc2c(sc3ncnc(Sc4ccccc4)c23)C1 (configuration not stated)", "ASSIGNED_LABEL": 0}
{"COMPOUND": "N#C/C(=N/Nc1ccc(C(F)(F)F)cc1)C(=O)C1CC1", "ASSIGNED_LABEL": 0}
{"COMPOUND": "NNC(=O)COc1ccc(C2SCCS2)cc1", "ASSIGNED_LABEL": 0}
{"COMPOUND": "N#CC(C#N)=NNc1ccc(C(F)(F)F)cc1", "ASSIGNED_LABEL": 1}
{"COMPOUND": "Cc1nc(C(F)(F)F)ccc1-c1nnc(SC(=O)c2ccc(Cl)cc2)o1", "ASSIGNED_LABEL": 1}
